Values from paper PMC5596636

molecular target: mMC1R (Mus musculus); test: cAMP-based β-galactosidase reporter agonist assay in HEK293 cells, mMC1R; details: EC50 of substituted peptide divided by EC50 of α-MSH; potency loss
Sequence (Q01727 whole entry): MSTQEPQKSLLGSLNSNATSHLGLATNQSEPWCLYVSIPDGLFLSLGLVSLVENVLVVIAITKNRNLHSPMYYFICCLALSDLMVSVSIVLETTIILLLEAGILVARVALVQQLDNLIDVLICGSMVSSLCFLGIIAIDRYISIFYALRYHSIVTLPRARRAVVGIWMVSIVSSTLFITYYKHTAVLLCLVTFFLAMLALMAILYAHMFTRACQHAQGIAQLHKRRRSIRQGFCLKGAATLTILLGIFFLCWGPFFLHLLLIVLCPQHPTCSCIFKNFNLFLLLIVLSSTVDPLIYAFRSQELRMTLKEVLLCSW
Test Readout: mMC1R fold difference (fold)
Numbers only here, please. The scale is fold.

Molecule	mMC1R fold difference [fold]
CSCC[C@H](NC(=O)[C@H](CO)NC(=O)[C@H](Cc1ccc(O)cc1)NC(=O)[C@H](CO)NC(C)=O)C(=O)N[C@@H](CCC(=O)O)C(=O)N[C@@H](C)C(=O)N[C@@H](Cc1ccccc1)C(=O)N[C@@H](CCCNC(=N)N)C(=O)N[C@@H](Cc1c[nH]c2ccccc12)C(=O)NCC(=O)N[C@@H](CCCCN)C(=O)N1CCC[C@H]1C(=O)N[C@H](C(N)=O)C(C)C [[Ala^6]α-MSH]	35
CC(=O)N[C@@H](CO)C(=O)N[C@@H](Cc1ccc(O)cc1)C(=O)N[C@@H](CO)C(=O)N[C@@H](C)C(=O)N[C@@H](CCC(=O)O)C(=O)N[C@@H](Cc1c[nH]cn1)C(=O)N[C@@H](Cc1ccccc1)C(=O)N[C@@H](CCCNC(=N)N)C(=O)N[C@@H](Cc1c[nH]c2ccccc12)C(=O)NCC(=O)N[C@@H](CCCCN)C(=O)N1CCC[C@H]1C(=O)N[C@H](C(N)=O)C(C)C [[Ala^4]α-MSH]	400
CSCC[C@H](NC(=O)[C@H](CO)NC(=O)[C@H](Cc1ccc(O)cc1)NC(=O)[C@H](CO)NC(C)=O)C(=O)N[C@@H](CCC(=O)O)C(=O)N[C@@H](Cc1c[nH]cn1)C(=O)N[C@@H](Cc1ccccc1)C(=O)N[C@@H](CCCNC(=N)N)C(=O)N[C@@H](C)C(=O)NCC(=O)N[C@@H](CCCCN)C(=O)N1CCC[C@H]1C(=O)N[C@H](C(N)=O)C(C)C [[Ala^9]α-MSH]	570

# input Item under review: CSCC[C@H](NC(=O)[C@H](CO)NC(=O)[C@H](Cc1ccc(O)cc1)NC(=O)[C@H](CO)NC(C)=O)C(=O)N[C@@H](CCC(=O)O)C(=O)N[C@@H](Cc1c[nH]cn1)C(=O)N[C@@H](C)C(=O)N[C@@H](CCCNC(=N)N)C(=O)N[C@@H](Cc1c[nH]c2ccccc12)C(=O)NCC(=O)N[C@@H](CCCCN)C(=O)N1CCC[C@H]1C(=O)N[C@H](C(N)=O)C(C)C [[Ala^7]α-MSH] . Reported mMC1R fold difference?
# output 200
